The measured values listed here are drawn from patent US20240294623A1.

Please go through the items and note down their Kd.
- target.entity: T1, hLRRC33-proTGFβ1 (human, UniProt Q86YC3 19-650; P01137 30-390, limits assumed)
- T1 construct: LLC as m1; Same id used for the cell-surface complex in reporter assays; also called human LRRC33-proTGFβ1 complex; LRRC33-ProTGFb1
- test.details: BLI (Octet)
Could you give me the number in pM? Just the number is fine.

Q: I'd like to know its Kd. The binder in question is Ab32 (antibody, V domains shown) VH: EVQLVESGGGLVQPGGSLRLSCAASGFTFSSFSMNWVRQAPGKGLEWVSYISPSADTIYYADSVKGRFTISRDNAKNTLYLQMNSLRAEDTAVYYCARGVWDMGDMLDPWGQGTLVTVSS VL: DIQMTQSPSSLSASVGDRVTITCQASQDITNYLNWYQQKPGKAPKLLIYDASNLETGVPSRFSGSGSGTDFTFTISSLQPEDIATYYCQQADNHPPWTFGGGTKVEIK
A: 698

Q: Now this one: Ab6 (antibody, V domains shown, Fully human IgG4/kappa) VH: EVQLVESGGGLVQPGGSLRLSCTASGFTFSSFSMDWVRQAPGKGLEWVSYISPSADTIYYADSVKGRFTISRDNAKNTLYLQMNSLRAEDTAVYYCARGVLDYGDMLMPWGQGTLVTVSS VL: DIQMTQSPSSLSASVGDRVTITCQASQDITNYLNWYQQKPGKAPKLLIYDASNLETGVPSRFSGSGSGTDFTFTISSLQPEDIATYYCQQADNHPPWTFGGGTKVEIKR
A: 336

Q: Next binder up: Ab27 (antibody, V domains shown) VH: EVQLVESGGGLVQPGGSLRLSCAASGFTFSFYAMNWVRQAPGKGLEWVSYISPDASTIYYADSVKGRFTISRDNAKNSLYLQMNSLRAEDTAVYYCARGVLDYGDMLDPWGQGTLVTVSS VL: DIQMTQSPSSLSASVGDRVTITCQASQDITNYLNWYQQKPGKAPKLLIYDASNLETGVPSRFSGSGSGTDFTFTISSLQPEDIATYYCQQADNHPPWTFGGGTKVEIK
A: 299
